The origin of these recorded values is paper PMC11406655.

- experiment: Plasma pharmacokinetics of GSK3326595
- Format: in vivo, human
- assay_setup: human, plasma, po, 400 mg
measurement_kind: half-life

[[record]]
compound = "CC(=O)N1CCC(Nc2cc(C(=O)NC[C@H](O)CN3CCc4ccccc4C3)ncn2)CC1 [GSK3326595]"
result = "4 to 6 h"


====

- experiment: Plasma pharmacokinetics of GSK3326595
- Type: in vivo, human
- assay_setup: human, plasma, po, 400 mg, Tmax, 300 and 400 mg once daily
measurement_kind: Tmax

[[record]]
smiles_code = "CC(=O)N1CCC(Nc2cc(C(=O)NC[C@H](O)CN3CCc4ccccc4C3)ncn2)CC1"
measurement_kind = "Tmax"
result = "~2 h"

